Ref: patent US20150246093A1

Assay: Pharmacokinetics after intra-duodenal injection (ID) in anesthetized rats, model mimicking enteric-coated oral dosage form, plasma LC-MS
Format: in vivo, rat
Details: rat, plasma, pH 3.5, ID 0.3 ml C [10 mg/ml, Captopril 5 mg/ml, 10 mg/ml LLC, 400 mM Citrate pH 3.5, 150 mM NaCl]; time point 20 min; Average; read-out: Angiotensin (1-7) concentration
outcome-measure: level at 20 min
Answer as a quantity: numeral, then unit.

Looking for the measured level at 20 min of CC[C@H](C)[C@H](NC(=O)[C@H](Cc1ccc(O)cc1)NC(=O)[C@@H](NC(=O)[C@H](CCCNC(=N)N)NC(=O)[C@@H](N)CC(=O)O)C(C)C)C(=O)N[C@@H](Cc1c[nH]cn1)C(=O)N1CCC[C@H]1C(=O)O , can you help?
138 ng/mL

###

Experiment: Pharmacokinetics after intra-duodenal injection (ID) in anesthetized rats, model mimicking enteric-coated oral dosage form, plasma LC-MS
Type: in vivo, rat
Conditions: rat, plasma, pH 3.5, ID 0.3 ml C [10 mg/ml, Captopril 5 mg/ml, 10 mg/ml LLC, 400 mM Citrate pH 3.5, 150 mM NaCl]; time point 90 min; Average; read-out: Angiotensin (1-7) concentration
outcome-measure: level at 1.5 h
Answer as a quantity: numeral, then unit.

Looking for the measured level at 1.5 h of CC[C@H](C)[C@H](NC(=O)[C@H](Cc1ccc(O)cc1)NC(=O)[C@@H](NC(=O)[C@H](CCCNC(=N)N)NC(=O)[C@@H](N)CC(=O)O)C(C)C)C(=O)N[C@@H](Cc1c[nH]cn1)C(=O)N1CCC[C@H]1C(=O)O , can you help?
5.83 ng/mL

###

Experiment: Pharmacokinetics after intra-duodenal injection (ID) in anesthetized rats, model mimicking enteric-coated oral dosage form, plasma LC-MS
Assay type: in vivo, rat
Settings: rat, plasma, 3 mg, ID 0.3 ml A [10 mg/ml in PBS]; time point 40 min; Average; read-out: Angiotensin (1-7) concentration
outcome-measure: level at 40 min (ng/mL)
State just the number; it will be interpreted in ng/mL.

Looking for the measured level at 40 min of CC[C@H](C)[C@H](NC(=O)[C@H](Cc1ccc(O)cc1)NC(=O)[C@@H](NC(=O)[C@H](CCCNC(=N)N)NC(=O)[C@@H](N)CC(=O)O)C(C)C)C(=O)N[C@@H](Cc1c[nH]cn1)C(=O)N1CCC[C@H]1C(=O)O , can you help?
4.37

###

Assay: Pharmacokinetics after intra-duodenal injection (ID) in anesthetized rats, model mimicking enteric-coated oral dosage form, plasma LC-MS
Assay type: in vivo, rat
Settings: rat, plasma, other: intra-duodenal injection (ID), 3 mg, pH 3.5, ID 0.3 ml B [10 mg/ml, 10 mg/ml LLC, 400 mM Citrate pH 3.5, 150 mM NaCl]; Average (PK value of the mean concentrations); read-out: Half-Life
Description: This model mimics the release and absorption expected from an orally delivered enteric coated solid dosage form such as capsule or tablet. After extraction, the samples were then transferred to ice-cold tubes containing a protease inhibitor cocktail. […] The oral delivery of an angiotensin (1-7) peptide (e.g., TXA127) was then evaluated in a rat model that mimics the release of the peptide into the intestine by enteric-coated capsule. […]
outcome-measure: Half-Life

Looking for the measured Half-Life of CC[C@H](C)[C@H](NC(=O)[C@H](Cc1ccc(O)cc1)NC(=O)[C@@H](NC(=O)[C@H](CCCNC(=N)N)NC(=O)[C@@H](N)CC(=O)O)C(C)C)C(=O)N[C@@H](Cc1c[nH]cn1)C(=O)N1CCC[C@H]1C(=O)O , can you help?
13 min

###

Experiment: Pharmacokinetics after intra-duodenal injection (ID) in anesthetized rats, model mimicking enteric-coated oral dosage form, plasma LC-MS
Format: in vivo, rat
Conditions: rat, plasma, other: intra-duodenal injection (ID), 3 mg, pH 3.5, ID 0.3 ml C [10 mg/ml, Captopril 5 mg/ml, 10 mg/ml LLC, 400 mM Citrate pH 3.5, 150 mM NaCl]; Average (PK value of the mean concentrations); read-out: Tmax (converted)
outcome-measure: Tmax (min)
State just the number; it will be interpreted in min.

Looking for the measured Tmax of CC[C@H](C)[C@H](NC(=O)[C@H](Cc1ccc(O)cc1)NC(=O)[C@@H](NC(=O)[C@H](CCCNC(=N)N)NC(=O)[C@@H](N)CC(=O)O)C(C)C)C(=O)N[C@@H](Cc1c[nH]cn1)C(=O)N1CCC[C@H]1C(=O)O , can you help?
5
